B1: CPEB3 Ribozyme (parent)
chain: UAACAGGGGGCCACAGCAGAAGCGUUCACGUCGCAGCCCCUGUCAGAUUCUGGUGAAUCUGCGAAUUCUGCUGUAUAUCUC

# Variants of: B1
# Test Name: self-cleavage, relative activity (ratio to wild type); higher = more cleavage; in vitro, sequencing
Returns true if the recorded self-cleavage is greater than or equal to 0.4, and false otherwise.

Variant Name | Label Class
U43C U80A | true
A57G G61A | true
G16U C39U | true
A18G A65U | false
A45U G70A | false
G9C U31C | false
G46A C68A | false
A5G C40G | false
A2G G42A | false
U54A G61U | true
G63A U72G | true
U1C A47G | true
C12A C79A | true
G7A C11G | false
G30U A56G | false
G52A U78A | true
A28G G63U | true
U31G C62G | false
C23G U72C | false
A21G C62U | false
C34U G46A | false
A21G C39G | false
C29G C59G | false
A15G U31C | false
A56U A57G | true
A45G U78C | true
U43C U74C | true
A20C A64U | false
C37U U41A | false
U1G A18G | true
A35U U72G | true
C29U U69G | false
A28U G46A | true
C37A C59U | false
G9C U60A | false
G10C U48C | false
C11U U26A | false
A47C U69C | false
C11G A77G | true
C39G U80A | false
C11A U78A | true
G7U A21G | false
G46A U76A | true
A2U A75G | true
A35U A65C | true
G9A A47U | false
U31A A35G | true
U26G A56G | false
A21G G33C | false
U1C A2U | true
A5U A35U | true
U74C A77G | true
G10A A56G | false
G24A A75U | false
G16U U67A | false
U25G U49A | false
A13C G30A | false
A15U G70C | false
G22C A65G | false
A13G U43G | false
U49C U60A | false
A18G C79G | true
A57G A65G | false
U43A G46U | true
A47U G55U | false
C44U U67C | false
A21U U76A | true
C23U U31A | false
C38A U51A | false
C14U A64U | true
C32G A45U | false
A28G A77G | true
G22U U76A | false
A20U U69C | false
C17G U80A | false
